# assay remarks: Pharmacokinetic experiments in rats
# assay setup: male, Sprague-Dawley, rat, in vivo, iv, 0.5 mg/kg
experimental readout: Cmax (ng/mL)
Your answer is read as ng/mL, so omit the unit and give the number.

# input Find the recorded Cmax belonging to `C=CC(=O)N1CCC[C@@H](n2nc(-c3ccc(Oc4ccccc4)cc3)c3c(N)ncnc32)C1` and report it.
# output 1230

---

# assay remarks: in vivo
# assay setup: male, Sprague-Dawley, rat, iv, 0.5 mg/kg
experimental readout: Cmax (ng/mL)
Your answer is read as ng/mL, so omit the unit and give the number.

# input Find the recorded Cmax belonging to `C=CC(=O)N1CCC[C@@H](c2nc(-c3ccc(Oc4ccccc4)cc3)c3c(N)nccn23)C1` and report it.
# output 966

Values were extracted from patent US11186578B2.
